Tested on: Calu-3
Test: cell viability relative to DMSO; higher = less toxic
Conditions: 72 h; 1 nM
Catalogue of cell viability values
measurement name: cell viability (%)

[[record]]
molecule = "Cc1cccc(C)c1NC(=O)C[N+](C)(C)C"
measurement_name = "cell viability"
numeric_readout = 102

[[record]]
molecule = "c1ccc(C(NCCNC(c2ccccc2)c2ccccc2)c2ccccc2)cc1"
measurement_name = "cell viability"
numeric_readout = 99

[[record]]
molecule = "Nc1nc(=O)n([C@@H]2CS[C@H](CO)O2)cc1F"
measurement_name = "cell viability"
numeric_readout = 104

[[record]]
molecule = "CC(=O)Nc1ccc(OC[C@](C)(O)C(=O)Nc2ccc([N+](=O)[O-])c(C(F)(F)F)c2)cc1"
measurement_name = "cell viability"
numeric_readout = 93.1

[[record]]
molecule = "OC[C@H]1NC[C@@H](O)[C@@H](O)[C@@H]1O"
measurement_name = "cell viability"
numeric_readout = 106

[[record]]
molecule = "NS(=O)(=O)OC[C@@H]1C[C@@H](n2ccc3c(N[C@H]4CCc5ccccc54)ncnc32)C[C@@H]1O"
measurement_name = "cell viability"
numeric_readout = 94.9

[[record]]
molecule = "COc1cc2c(Oc3ccc(NC(=O)C4(C(=O)Nc5ccc(F)cc5)CC4)cc3F)ccnc2cc1OCCCN1CCOCC1"
measurement_name = "cell viability"
numeric_readout = 99.7

[[record]]
molecule = "CCn1c2ccccc2c2cc(Nc3ccnc(NCCCN4CCOCC4)n3)ccc21"
measurement_name = "cell viability"
numeric_readout = 95

[[record]]
molecule = "CO[C@@]1(NC(=O)C2SC(=C(C(N)=O)C(=O)O)S2)C(=O)N2C(C(=O)O)=C(CSc3nnnn3C)CS[C@@H]21 (some centres undefined)"
measurement_name = "cell viability"
numeric_readout = 109


###

Tested on: Calu-3
Assay: cell viability relative to DMSO; higher = less toxic
Details: 72 h; 100 nM
Known cell viability of a selection of compounds
measurement name: cell viability

[[record]]
chemical_string = "Cc1cc(-c2cc(OC(=O)c3ccccc3)ccc2Cl)cc2nnc(Nc3ccc(OCCN4CCCC4)cc3)nc12"
result = "90.9%"

[[record]]
chemical_string = "CN(C)CCCSC(=N)N"
result = "109%"

[[record]]
chemical_string = "CCOC(=O)c1ncn2c1CN(C)C(=O)c1cc(N=[N+]=[N-])ccc1-2"
result = "97%"


###

Parameter cell viability: see the listing below.
System: Vero E6
Test: cell viability relative to DMSO; higher = less toxic
Conditions: 72 h; 10000 nM
measurement name: cell viability (%)

[[record]]
compound = "Cc1ccc(-c2cn3c4c(sc3n2)CCCC4)cc1 [pifithrin-cyclic]"
numeric_readout = 97.1

[[record]]
compound = "CCn1cc(C(=O)O)c(=O)c2cc(F)c(N3CCNCC3)cc21 [norfloxacin]"
numeric_readout = 104

[[record]]
compound = "O=C(O)C1=CO[C@@H](O[C@@H]2O[C@H](CO)[C@@H](O)[C@H](O)[C@H]2O)[C@@H]2C(CO)=CC[C@H]12 [Geniposidic acid]"
numeric_readout = 101

[[record]]
compound = "COc1cc2c(Oc3ccc(NC(=O)C4(C(=O)Nc5ccc(F)cc5)CC4)cc3F)ccnc2cc1OCCCN1CCOCC1 [foretinib]"
numeric_readout = 0.2

[[record]]
compound = "CSc1ccc([C@H]2CN3CCC[C@H]3c3ccccc32)cc1 (racemic) [McN-5652-(+/-)]"
numeric_readout = 104

[[record]]
compound = "CC(=O)Nc1ccc(OC[C@](C)(O)C(=O)Nc2ccc([N+](=O)[O-])c(C(F)(F)F)c2)cc1 [andarine]"
numeric_readout = 100

